system: cynomolgus BCMA-Fc (cynomolgus)
Sequence (chain, as listed by the source): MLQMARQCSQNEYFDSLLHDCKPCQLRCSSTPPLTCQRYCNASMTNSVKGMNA
assayOverview: SPR, 25C
// assign Met if Kd falls strictly below 4 nM, else Not met (ties count as Not met)

binder: P1AG5056 (54_VH1b/VL1a_N651A) (antibody, V domains shown) VH: EVQLVESGGGLVKPGGSLRLSCAASGFTFSNAWMDWVRQAPGKGLEWIAQITAKSNNYATYYAAPVKGRFTISRDDSKNTLYLQMNSLKTEDTAVYYCTDDGYHWGQGTLVTVSS VL: AIQMTQSPSSLSASVGDRVTITCRASEDIRNGLAWYQQKPGKAPKLLIYAANSLHTGVPSRFSGSGSGTDFTLTISSLQPEDFATYYCEDTSKYPYTFGQGTKLEIK
assignedClass: Not met
--
binder: P1AG5044 (E04_VH1b/VL1b) (antibody, V domains shown) VH: QVQLVQSGAEVKKPGASVKVSCKASGYTFTNYWMHWVRQAPGQGLEWMGIIHPNSGSTNYNEKFQGRVTMTVDKSTSTVYMELSSLRSEDTAVYYCARGIYDYPFAYWGQGTLVTVSS VL: DIQMTQSPSSLSASVGDRVTITCRASESVSIHGTHLMHWYQQKPGKAPKLLIYAASNLESGVPSRFSGSGSETDFTLTISSLQPEDFATYYCQQSIEDPYTFGGGTKVEIK
assignedClass: Not met
--
binder: P1AG5080 (54_VH1a_Y292D/VL2a) (antibody, V domains shown) VH: EVQLVESGGGLVKPGGSLRLSCAASGFTFSNAWMDWVRQAPGKGLEWVGQITAKSNNYATDYAAPVKGRFTISRDDSKNTLYLQMNSLKTEDTAVYYCTDDGYHWGQGTLVTVSS VL: DIQMTQSPSSLSASVGDRVTITCRASEDIRNGLAWYQQKPGKAPKLLIYNANSLHTGVPSRFSGSGSGTDFTLTISSLQPEDFATYYCEDTSKYPYTFGQGTKLEIK
assignedClass: Not met
--
binder: P1AG5021 (E04_VH1b/VL1g) (antibody, V domains shown) VH: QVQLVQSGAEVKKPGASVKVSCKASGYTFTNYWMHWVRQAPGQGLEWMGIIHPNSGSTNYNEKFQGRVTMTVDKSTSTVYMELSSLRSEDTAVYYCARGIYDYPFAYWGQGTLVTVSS VL: DIQMTQSPSSLSASVGDRVTITCRASESVSIHGTHLMHWYQQKPGKAPKLLIYAASNLESGVPSRFSGSGSGTDFTLTISSLQPEDFATYFCQQSIEDPYTFGGGTKVEIK
assignedClass: Not met
--
binder: P1AG5061 (54 parental) (antibody, V domains shown) VH: EVQLVESGGGLVKPGESLRLSCAASGFTFSNAWMDWVRQAPGKRLEWIAQITAKSNNYATYYAAPVKGRFTISRDDSKNTLYLQMNSLKKEDTAVYYCTDDGYHWGQGTLVTVSS VL: AIQMTQSPSSLSASVGDRVTIACRASEDIRNGLAWYQQKPGKAPKLLIYNANSLHTGVPSRFSGSGSGTDFTLTISSLQPEDEAIYYCEDTSKYPYTFGQGTKLEIK
assignedClass: Met
--
binder: P1AG5030 (54_VH1b/VL2a) (antibody, V domains shown) VH: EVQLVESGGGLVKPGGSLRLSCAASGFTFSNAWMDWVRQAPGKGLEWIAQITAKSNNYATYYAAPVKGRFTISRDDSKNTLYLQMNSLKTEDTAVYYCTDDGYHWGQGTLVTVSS VL: DIQMTQSPSSLSASVGDRVTITCRASEDIRNGLAWYQQKPGKAPKLLIYNANSLHTGVPSRFSGSGSGTDFTLTISSLQPEDFATYYCEDTSKYPYTFGQGTKLEIK
assignedClass: Met
--
binder: P1AG5053 (E04_VH1a/VL1h) (antibody, V domains shown) VH: QVQLVQSGAEVKKPGASVKVSCKASGYTFTNYWMHWVRQAPGQGLEWMGIIHPNSGSTNYNEKFQGRVTMTRDTSTSTVYMELSSLRSEDTAVYYCARGIYDYPFAYWGQGTLVTVSS VL: DIQMTQSPSSLSASVGDRVTITCRASESVSIHGTHLMHWYQQKPGKAPKLLIYAASNLESGVPSRFSGSGSETDFTLTISSLQPEDFATYFCQQSIEDPYTFGGGTKVEIK
assignedClass: Not met
--
binder: P1AG5060 (E04_VH1b/VL1f) (antibody, V domains shown) VH: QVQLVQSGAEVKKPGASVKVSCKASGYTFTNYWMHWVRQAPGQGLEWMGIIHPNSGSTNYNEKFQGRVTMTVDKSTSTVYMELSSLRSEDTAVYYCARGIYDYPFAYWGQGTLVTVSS VL: DIQMTQSPSSLSASVGDRVTITCRASESVSIHGTHLMHWYQQKPGKAPKLLIYAASSLQSGVPSRFSGSGSETDFTLTISSLQPEDFATYYCQQSIEDPYTFGGGTKVEIK
assignedClass: Not met
--
binder: P1AG5063 (E04_VH1a/VL1a) (antibody, V domains shown) VH: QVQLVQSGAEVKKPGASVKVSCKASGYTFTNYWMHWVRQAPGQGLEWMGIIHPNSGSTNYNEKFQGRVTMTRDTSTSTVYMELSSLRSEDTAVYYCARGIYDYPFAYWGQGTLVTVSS VL: DIQMTQSPSSLSASVGDRVTITCRASESVSIHGTHLMHWYQQKPGKAPKLLIYAASNLESGVPSRFSGSGSGTDFTLTISSLQPEDFATYYCQQSIEDPYTFGGGTKVEIK
assignedClass: Not met

Provenance of the data: patent US20260285998
